- testDescription: qHTS assay to identify small molecule agonists of the estrogen related receptor (ERR) signaling pathway from Tox21 library (AID 1224849); also: nearly all actives have a fitted effect of over 15% in size
- assayConditions: ERR reporter cell line, ONE-Glo luciferase, 18 h; at 92.4 µM (top of the series) unless noted
The source made the active and inactive calls. Calls follow the shape of the full dose curve.
Response enum: active, inactive

Would you please look over these solved cases?
- smilesData: "CN1CCN(C2=Nc3ccccc3Oc3ccc(Cl)cc32)CC1"
  assignedCategory: "inactive"
- smilesData: "O=[N+]([O-])c1nccn1CO[C@@H](CO)[C@H](O)CO"
  assignedCategory: "inactive"
- smilesData: "CCc1cc2cc(OC)c(OC)cc2c(Cc2ccccc2)n1"
  assignedCategory: "inactive"
- smilesData: "C[C@@H]1CN(c2c(F)c(F)c3c(=O)c(C(=O)O)cn(C4CC4)c3c2F)C[C@H](C)N1"
  assignedCategory: "active"
- smilesData: "FC(F)(F)C(F)(F)C(F)(F)C(F)(F)C(F)(F)C(F)(F)C(F)(F)C(F)(F)Br"
  assignedCategory: "inactive"
- smilesData: "O=S(=O)(O)C(F)(F)F"
  assignedCategory: "inactive"

Recorded test call requested for "O=C(C(Cl)Cl)N1CCOC12CCCCC2" inactive

Hi, sorry to bother you, what did the test record for "O=c1[nH]c(=O)n([C@H]2C[C@H](O)[C@@H](CO)O2)cc1C(F)(F)F" ? inactive

###

- testDescription: qHTS assay for small molecule agonists of the p53 signaling pathway (AID 651631); also: nearly all actives have a fitted effect of over 15% in size
- assayConditions: HCT-116 p53RE-bla reporter, beta-lactamase FRET ratio, 16 h; series mostly up to 73.3 µM
Records with an inconclusive call do not appear. Active and inactive are the calls of the source. The call rests on the fitted dose curve.
measuredAttribute: outcome

- smilesData: "CC(=O)N[C@@H](CC(C)C)C(=O)O"
  result: "inactive"
- smilesData: "COC(=O)c1ccc(OC)cc1"
  result: "inactive"
- smilesData: "Cc1ccc([N+](=O)[O-])cc1Cl"
  result: "inactive"

###

- testDescription: A CellTox Green Cytotoxicity Assay to monitor cytotoxicity in HEK293 cells - 40 hour (AID 1224871); also: nearly all actives have a fitted effect of over 45% in size
- assayConditions: CellTox Green fluorescence; series mostly up to 76.8 µM
Records with an inconclusive call do not appear. Active and inactive are the calls of the source. The call rests on the fitted dose curve; in most records, active means well fitted activation curve with a large enough effect in the repeat runs; inconclusive means weak or mixed curves; inactive means flat fitted curve, though single readings scatter.
// allowed return values: 1 for active, 0 for inactive

Here's what some known entries look like.
- compound: "CCOC(=O)c1cc(=O)c2c(OCC(COc3cccc4oc(C(=O)OCC)cc(=O)c34)OC(=O)[C@@H](N)CCCCN)cccc2o1"
  assignedCategory: 0
- compound: "CCN(CC)CCNC(=O)COc1ccc(Cl)cc1"
  assignedCategory: 0
- compound: "Nc1ccc(Oc2ccc(N)c(N)c2)cc1"
  assignedCategory: 0
- compound: "OCCN(CCO)CCN(CCO)CCO"
  assignedCategory: 0
- compound: "CCCCCCCCCCCCCCCCOP(=O)([O-])OCC[N+](C)(C)C"
  assignedCategory: 0
- compound: "CCc1nnc(NS(=O)(=O)c2ccc(N)cc2)s1"
  assignedCategory: 0
- compound: "C1CSCCS1"
  assignedCategory: 0
- compound: "O=Cc1ccc(F)c(Br)c1"
  assignedCategory: 0
- compound: "CC(C)NCC(O)COc1ccc(CCOCC2CC2)cc1 (stereo not drawn)"
  assignedCategory: 0
- compound: "CCCNC(C)(C)COC(=O)c1ccccc1"
  assignedCategory: 0

What did the test return for "CCCCC(=O)O[C@]1(C(=O)CO)[C@H](C)C[C@H]2[C@@H]3CCC4=CC(=O)C=C[C@]4(C)[C@@]3(F)[C@@H](O)C[C@@]21C" ? 0

Each compound tested received a call. Report the one for "C=Cc1ccccc1" . 0

Status in this test for "Cc1ccc(C=O)s1" ? 1

The values you see were collected from PubChem BioAssay (Tox21).
